test: yeast display, Sf9 membrane polyspecificity reagent, FACS + sequencing; frameworks hold sequencing errors
REPORTED_PROPERTY: polyreactivity (PSR sort gate)

Examples from the recorded data:
>  <BIOPOLYMER_SEQUENCE>
QVQLVESGGGLVQAGGSLRISCAASGLTFEVYAMGWYRQAPGIERELVATITYSGGITYYADSVKGRFTISRDNAKNTVYLQMNSLKPEDTAVYYRIGFGGDYDYWGQGTQVTVSS

>  <MEAS_VALUE>
low polyreactivity

$$$$
>  <BIOPOLYMER_SEQUENCE>
QVQLVESGGGLVQAGGSLRLSCAASGSIFYYYAMGWYRQAPGKERELVAAITYDAGSTYYADSVKGRFTISRDNAKNTVYLQMNSLKPEDTAVYYCATDGIYHWGVYTPYDYWGQGTQVTVSS

>  <MEAS_VALUE>
low polyreactivity

$$$$
>  <BIOPOLYMER_SEQUENCE>
QVQLVESGGGLVQAGGSLRLSCAASGSTIFLYDMGWYRQAPGKERELVAAITISGGSTYYADSVKGRFTISRDNAKNTVYLQMNSLKPEDTAVYDCNADYQWYLGGYDYWGQGTQVTVSS

>  <MEAS_VALUE>
high polyreactivity

$$$$
>  <BIOPOLYMER_SEQUENCE>
QVQLQESAGGRQPAPELRGERLYFWLLLMGWYRQAPGEERELVAGINYGASTNYSDSVKGRFTISRDNARNTVYLKMNSLKPGDTAVYYCAVWQPVLIWFYYWGQGTQVTVSS

>  <MEAS_VALUE>
high polyreactivity

$$$$
>  <BIOPOLYMER_SEQUENCE>
QVQLVESGGGLVQAGGSLRLSCAASGVTFVDYAMGWYRQAPGKERELVAAITVSGDSTYYADSVKGRFTLSRDNAKNTVYLQMNSLKPEDTAVYYCAADPGYYDGGYWGQGTQVTVSS

>  <MEAS_VALUE>
low polyreactivity

$$$$
>  <BIOPOLYMER_SEQUENCE>
QVQLVESGGGLVQAGGSLRLSCAASGFIFFYYAMGWYRQAPGKERELVAAISASGGSTYYADSVKGRFTISRDNAKNTVYLQLNSLKPEDTAVYYCAARYRKAESARWEYGYWGQGTQVTVSS

>  <MEAS_VALUE>
high polyreactivity

$$$$

**Q:** Request the reported polyreactivity (PSR sort gate) associated with `QDQRVESGGGLVQAGGSLRLSCAASGITLEFYAMGWYRQAPGNERELVARIRSGGSTNYAVSVKGRFTISRDNAKNTVYLQMNSLKPDDTAVYYCAAYLRTDRYGYWGQGTQVTVSS`
**A:** high polyreactivity

**Q:** State the recorded polyreactivity (PSR sort gate) for this entry: `QVQLVESGGGLVQAGGSLRLSCAASGSIFIWYAMGWSRQAPGKEREFVAAITYTGTSTYYADSVKGRFTISRDNAKNTVYLQMNSLKPEDTAVYYCAADKSTHPFPSDPGYGYWGQGTQVTVSS`
**A:** low polyreactivity

**Q:** Reported polyreactivity (PSR sort gate), sequence `QVQLVESGGGLVQAGGSLRLSCAASGLILRYNGMGWYRQAPGKERELVAAISSNAGTTSYADSVKGRFTISRDNAKNTVYLQMNSLKPEDTAVYWGQGTQVTVSS` : ____
**A:** low polyreactivity

**Q:** What does the data say about its polyreactivity (PSR sort gate)? Entry: `QVQLVESGGGLVQAGGSLRLSCAASGNTFYPYAMGWYRQAPGKERELVATIRGSDDSTYYADSVKGRFTISRDNAKNTVYLQMNSLKPEDTAVYDCAADDVVSTFLRGYVRYDYWGQGTQVTVSS`
**A:** high polyreactivity

**Q:** I would be grateful if you could share the reported polyreactivity (PSR sort gate) for `QVQLVESGGGLVQAGGSLRLSCAASGIIFLTHAMGWYRQAPGKERELVAAITAIGGSTYYADSVKGRFTLSRDNAMNTVYLLMISLKPEDTADYYCAADFSYVYYLYDFWGQGTKVTVSS` .
**A:** low polyreactivity

**Q:** Quick one: polyreactivity (PSR sort gate) for `QVQLVESGGGLVQAGGSLRLSWAASGSIFKYYAMGWYRQAPGKDRELVADISRSGGRTYYADSVKGRFTISRDNAKNTVFLQMNSLKPEDTAVYYCAKRYSRGSQDDYWGQGTQVTVSS` ?
**A:** high polyreactivity

**Q:** Need polyreactivity (PSR sort gate) of `QVQLVESGGGLVQAGGSLRLSCAASGSTFHYYARGWYRQAPGKERELVAAISQSGSGTYYADSVKGRFTISRDYAKNTVYLQMNSLKPEDTAVYYCAKDITGLSRYRRDYWGQGTQVTVSS` , thanks.
**A:** low polyreactivity

---

experiment: yeast display, Sf9 membrane polyspecificity reagent, FACS + sequencing; frameworks hold sequencing errors
REPORTED_PROPERTY: polyreactivity (PSR sort gate)

# example entries with known answers
>  <BIOPOLYMER_SEQUENCE>
QVQLVESAAGLVQAGGSLRLSCAASGLTFTTYDKGWYTQAPRKQRELFAAISRGGSRTYYADSVKGRFTISRDNAKNTVYLQMNSLKPEDTAVYYGNALTGSFTTYSFDFWGQGTQVTVSS

>  <MEAS_VALUE>
high polyreactivity

$$$$
>  <BIOPOLYMER_SEQUENCE>
QVQLQERGGGLVQAGGSLRLTCAASGTISDSGLMGWYRQAPGKERELVAGISSGGITNYADSVKGRFTISRDNANNTVYLQMNSLKPEDNAVFWGQGSQVTVSS

>  <MEAS_VALUE>
low polyreactivity

$$$$
>  <BIOPOLYMER_SEQUENCE>
QVQLVESGGGLVQAGGSLRLSCAASGSIFYSYAMGWYRQAPGKERELVAAISWDASTYYADSVKGRFTISRDNAKNTVDLQMNSLKPEDTAVYYCNKRWFAPPPYSYVRSYDYWGQGTQVTVSS

>  <MEAS_VALUE>
low polyreactivity

$$$$
>  <BIOPOLYMER_SEQUENCE>
QVQLVESGGGLVQAGGSLRLSCAASGRTFYGNAMGWYRQAPGKERELVAAINYSGGRTFYADSVKGRFTISRDNAKNTVYLQMNSLKPEDTAVYYCAAQDTYYGLFSYWIPWSGYWGQGTQVTVSS

>  <MEAS_VALUE>
high polyreactivity

$$$$

**Q:** Dear colleague, I am looking for the recorded polyreactivity (PSR sort gate) of the following sequence: `QVQLVESGGGLVQARGSLRLSCAASGSTSDINAMGWYRHAPGKARELVAVITDSSNTDYADSVKGRFTISRDNAKNTVYLQMNSLKPEDTAVYYCARDDATAGDYWGQGTQVTVSS`
**A:** low polyreactivity

---

assay: yeast display, Sf9 membrane polyspecificity reagent, FACS + sequencing; frameworks hold sequencing errors

>  <BIOPOLYMER_SEQUENCE>
QVQLVESGGRLVQAGGSLRLSCAASGRTFLVNDMGWYRQAPGKERELVAAINYNAGSTFYADSVKGRFTISRDIAKNTVYLQMNSLKPEDTAVYYCATDVYGYVEYDYWGQGTQVTVSS

>  <polyreactivity (PSR sort gate)>
low polyreactivity

$$$$
>  <BIOPOLYMER_SEQUENCE>
QVQLVESGGGLVQTGGSLRLSCAASGSTFNQYDMGWYRQAPGKERELVAAINRDGSTYYADSVKGRFTISRDNAKNTVYLQMNSLNPEDTAVYYWNAVGWYTYFYGSRKYNSWGQGTEVTVSS

>  <polyreactivity (PSR sort gate)>
low polyreactivity

$$$$

---

assay: yeast display, Sf9 membrane polyspecificity reagent, FACS + sequencing; frameworks hold sequencing errors
REPORTED_PROPERTY: polyreactivity (PSR sort gate)

Answered examples (5):
>  <BIOPOLYMER_SEQUENCE>
QVQLVESGGGLVQAGCSLRLSSAASGSTFRANAMGWYRQAPGKERELVAAITSGGSTNYADSVKGRFTISRDNAKNTVYLQMNRRKPEDTAVYYCADESYQEHSFYVYYGYDYWGQGTQVTVSS

>  <polyreactivity (PSR sort gate)>
low polyreactivity

$$$$
>  <BIOPOLYMER_SEQUENCE>
QVQLVESGGGLVQAGGSLRLSCAASGSTFNSYVMGWYRQAPGQERELVAAITWSGGRTYYADSVKGRFTISRDNAKNTVYLQMNSLKPEDTAVYYCARKKRRGRDWGYDYWGQGTQVTVSS

>  <polyreactivity (PSR sort gate)>
high polyreactivity

$$$$
>  <BIOPOLYMER_SEQUENCE>
QVQLVESGGGLVQAGGILRLSCAASGSIFPFYAMGWYRQAPGKERELVATISWSGGRTYYADSVKGRFTISRDNANNTVYFQMNSLKPEVTAVYYCAAQSYDYWYDYDYWGQGTQVTVSS

>  <polyreactivity (PSR sort gate)>
high polyreactivity

$$$$
>  <BIOPOLYMER_SEQUENCE>
QVQLEESGGGLVQAGGSLRLSCAASGSTFRDNALGWYRQAPGKETELVAGITRGGITNYADSVKGRFTISRDNAKNTVYLQMNSLIPEDTAVYYCAAEVTGTYYDYDYWGQGTQVTVSS

>  <polyreactivity (PSR sort gate)>
low polyreactivity

$$$$
>  <BIOPOLYMER_SEQUENCE>
QVQLVESGGGLVQAGGSLRLSCAASGGIFYGNVMGWYRQAPGKERQLVADITSVGSTYYADSVKGRFTFSRDNAKYTVYIQMNSLKPEDTAVYYCAAEPDHVAESHSGYDYWGQGTLVTVSS

>  <polyreactivity (PSR sort gate)>
low polyreactivity

$$$$

**Q:** Consider the sequence shown here: `QVQLQESGGGLVQARGSLRLSCSASGNISVNGFMGWYRQAPGNVRELVASIGIGGTTYYADSVKGRFSISRDNAKNTVYLQMNSLKPEDTSVYYCAASYLYYAYSYWYQGTQVTVSS` What is its recorded polyreactivity (PSR sort gate)?
**A:** low polyreactivity

**Q:** // query polyreactivity (PSR sort gate) value for entry `QVQLVESGGGLVQAGGSLRLSCAASGSILSTYAKGWYRQAPGKERELVASISSNAGSTYYADSVKGRFTISRDNAKNTVYLQMNSLKPEDTAVYYCNKVYGGGTYDYWGQGTQVTVSS`
**A:** low polyreactivity

**Q:** May I ask what polyreactivity (PSR sort gate) has been recorded for `HVQLVESGGGLVQAGGSLRLSCAASGFMFSGYAMGWYRQAPGKVRELVAAITWSGSNTFYADSVKGRFTISRDNAKNTVYLQRNSLKPEDTAVYYCNAVSKYKRSDYYYWGQGTQVTVSS` ?
**A:** high polyreactivity

**Q:** Entry `QVQLVESGGGLVQAGGSLRLSCAASGNIFDTYVMGWYRQAPGKERELVAAITSDGGTYYADSVKGRFTISRDNAKNTVYLQMNSLKPEDTAVYYCAADTYYYPIHDYWGQGTQVTVSS` has what polyreactivity (PSR sort gate)?
**A:** low polyreactivity

**Q:** Please give the measured polyreactivity (PSR sort gate) for this sequence: `QVQLVESGGGLVQAGGSLRFICAASGRIFRRYLMGWYRQAPGKERELVARFRIRDSNTYYADSVKGRFTISRDNAKNTVYLQMNSLKPEDTAVYNCAVVANYVYSKYDYWGQGTQVTVSS`
**A:** high polyreactivity

**Q:** Find the recorded polyreactivity (PSR sort gate) belonging to `QVQLVESGGGLVQAGGSLRLSCAASGLIFYFNAIGWYRQAPGKERELVASITRTGSTNYADSVKGRFTISRDNAKNTVYLHMNRLKPEYTAVYYCSAPWTQILDYWGQGTQVTVSS` and report it.
**A:** low polyreactivity

Origin of the recorded values: the nanobody polyreactivity screen of Harvey et al. (2022)
